# melting point listing for each entry below
Outcome measure: melting point

[[record]]
compound = "O=C1N[C@@H](c2ccccc2)[C@H]1O"
observed_value = "175 to 180 °C"

[[record]]
compound = "CCOC(=O)C1=C(C)Nc2nc(N3CCOCC3)nc(N3CCOCC3)c2C1c1ccccc1C#N (centres undefined)"
observed_value = "248 °C"

[[record]]
compound = "CCOC(=O)C1=Cc2cc(Cl)cc(Br)c2OC1C(F)(F)F (centres undefined)"
observed_value = "101 to 102 °C"

[[record]]
compound = "COC(=O)[C@@H]1OC(c2ccc(O)c(OC)c2)O[C@H]1C(=O)OC"
observed_value = "88 to 90 °C"

[[record]]
compound = "CC1(C)OC(=C(C#N)C#N)C(C#N)=C1/C=C/c1ccc(N)cc1"
observed_value = "360 °C"

[[record]]
compound = "O=C(O)CCC(=NO)c1ccc(-c2ccc(Cl)cc2)cc1"
observed_value = "155 to 157 °C"

[[record]]
compound = "COc1ccc(CCNc2nc(N)c3nc(-c4ccco4)oc3n2)cc1"
observed_value = "194 to 196 °C"

[[record]]
compound = "COc1ccc(S(=O)(=O)NC(=O)c2ccc(C(=O)OC(C)C)nc2)cc1"
observed_value = "215 to 216 °C"

[[record]]
compound = "COC(=O)c1cnc2n1CCc1ccccc1C2=C1CCN(CCc2ccc(OCc3ccc4ccccc4n3)cc2)CC1"
observed_value = "179 °C"

[[record]]
compound = "CC(=O)SCCC1C(=O)N2CCCC(C(=O)OC(C)(C)C)N2C1=O (centres undefined)"
observed_value = "86 to 88 °C"

[[record]]
compound = "CCCCCCCCCCCCn1nnc(CC(=O)O)n1"
observed_value = "70 to 73 °C"

[[record]]
compound = "CSc1cc(C)nc(SC)c1NC(=O)C=CC1=C(c2ccccc2)c2ccccc2OC1"
observed_value = "225 to 227 °C"

[[record]]
compound = "CC[C@@H](c1ccccc1)N(Cc1ccc(C(=O)O)cc1)S(=O)(=O)c1ccc(Cl)cc1"
observed_value = "154 to 156 °C"

[[record]]
compound = "Nc1cc(C(c2cc(F)ccc2F)S(=O)(=O)c2ccc(F)cc2)c(Cl)cn1 (centres undefined)"
observed_value = "157 to 159 °C"

[[record]]
compound = "O=CN(Cc1ccccn1)C1(c2ccc(-c3ccccc3)cc2)CCC1"
observed_value = "101 °C"

[[record]]
compound = "CCCCN(CCCC)c1cc(=O)n(-c2ccc(S(=O)(=O)O)cc2)[nH]1"
observed_value = "267 to 269 °C"

[[record]]
compound = "COc1ccccc1Nc1cccc(C(=O)Nc2ccccc2)c1"
observed_value = "153 to 154 °C"

[[record]]
compound = "CC1(C)Oc2ccc(C#N)cc2[C@@H](NC(=O)NC(=O)C(Cl)(Cl)Cl)[C@@H]1O (relative stereo)"
observed_value = "231 to 233 °C"

[[record]]
compound = "CNC(=O)c1cc(Oc2ccc(N)c(F)c2)ccn1"
observed_value = "140 to 141 °C"

[[record]]
compound = "CCOC(=O)c1[nH]cc2c1NC1=C(C(=O)CCC1)C2c1ccc(Sc2nc3cc(Cl)c(Cl)cc3[nH]2)o1 (centres undefined)"
observed_value = "180 °C"

[[record]]
compound = "CC(C#N)c1ccc2c(=O)c3ccccc3ccc2c1 (centres undefined)"
observed_value = "108 to 109 °C"

[[record]]
compound = "COc1ccc(C(=O)C(CCc2cccc(OC)c2)c2ccccc2)cc1 (centres undefined)"
observed_value = "79 to 85 °C"

[[record]]
compound = "Nc1ncc(-c2ccc(C(F)(F)F)cc2)cc1C(F)(F)F"
observed_value = "168 °C"

[[record]]
compound = "Cc1cc(F)ccc1-c1nc(OCC(N)S(C)(=O)=O)nc2c1ccc(=O)n2-c1c(F)cccc1F (centres undefined)"
observed_value = "95 to 99 °C"

[[record]]
compound = "Cc1cc(-c2[nH]c3ccc([N+](=O)[O-])cc3c2C)cc(C)c1O"
observed_value = "229 to 231 °C"

[[record]]
compound = "CC(C)(C)C(NC(=O)Cc1ccc2cccnc2c1)NC(=NC#N)Nc1cccc2ncccc12 (centres undefined)"
observed_value = "147 to 148 °C"

[[record]]
compound = "Cc1cccc(C)c1-n1cc(C#N)c(=O)n(SC(Cl)(Cl)Cl)c1=O"
observed_value = "223 to 225 °C"

[[record]]
compound = "COc1ccc(C(=O)c2cccc(C(F)(F)F)c2)cc1C"
observed_value = "56 to 59 °C"

[[record]]
compound = "COc1ccc2c(c1)OC=C(C(=O)N1CCN(C(c3ccc(F)cc3)c3ccc(F)cc3)CC1)O2"
observed_value = "65 °C"

[[record]]
compound = "COc1ccc2c(=O)c(C(N)=O)c(N)oc2c1"
observed_value = "265 to 266 °C"

[[record]]
compound = "Cc1cc2c(-c3ccccc3)c(CNC(=O)c3cc4ccccc4[nH]3)n(C)c(=O)c2cc1C"
observed_value = "303 to 305 °C"

[[record]]
compound = "COC(=O)c1ccc(-c2nc(-c3c(F)c(F)c(F)c(F)c3F)cs2)cc1"
observed_value = "141 to 142 °C"

[[record]]
compound = "COc1ccc(S(=O)(=O)N(CC#N)c2ccc(Cl)cc2C(=O)c2ccccc2Cl)cc1OC"
observed_value = "164 °C"

[[record]]
compound = "CNC(=O)c1ccc(C=CC(=O)Nc2cccc(-c3ccc(C)c(CO)c3C)c2)cc1"
observed_value = "272 to 277 °C"

[[record]]
compound = "COC(=O)[C@@H]1CSSCC(C)(C)C(=O)N1"
observed_value = "87 to 89 °C"

[[record]]
compound = "Cc1cc2c(cc1C)C(=CC#N)OC2=O"
observed_value = "165 to 181 °C"

[[record]]
compound = "Cc1cc2c(OCc3ccc(-c4nnn[nH]4)cc3)cccc2o1"
observed_value = "196 to 197 °C"

[[record]]
compound = "COc1cc(OCc2ccccn2)ccc1/C=C/c1cc(/C=C/c2ccc3[nH]cnc3c2)n[nH]1"
observed_value = "135 to 142 °C"

[[record]]
compound = "O=S1(=O)c2cccc3cccc(c23)N1CCCN1CC=C(c2ccc(Cl)cc2)CC1"
observed_value = "111 °C"

